// data source = ChEMBL document CHEMBL4373693

target: DNA gyrase subunit A (Escherichia coli K-12, UniProt P0AES4); test: Inhibition of Escherichia coli ATCC 25922 DNA gyrase A assessed as reduction in enzyme-mediated supercoiling of relaxed pBR322 DNA by ethidium bromide staining based gel electrophoresis method
Sequence (P0AES4 whole entry): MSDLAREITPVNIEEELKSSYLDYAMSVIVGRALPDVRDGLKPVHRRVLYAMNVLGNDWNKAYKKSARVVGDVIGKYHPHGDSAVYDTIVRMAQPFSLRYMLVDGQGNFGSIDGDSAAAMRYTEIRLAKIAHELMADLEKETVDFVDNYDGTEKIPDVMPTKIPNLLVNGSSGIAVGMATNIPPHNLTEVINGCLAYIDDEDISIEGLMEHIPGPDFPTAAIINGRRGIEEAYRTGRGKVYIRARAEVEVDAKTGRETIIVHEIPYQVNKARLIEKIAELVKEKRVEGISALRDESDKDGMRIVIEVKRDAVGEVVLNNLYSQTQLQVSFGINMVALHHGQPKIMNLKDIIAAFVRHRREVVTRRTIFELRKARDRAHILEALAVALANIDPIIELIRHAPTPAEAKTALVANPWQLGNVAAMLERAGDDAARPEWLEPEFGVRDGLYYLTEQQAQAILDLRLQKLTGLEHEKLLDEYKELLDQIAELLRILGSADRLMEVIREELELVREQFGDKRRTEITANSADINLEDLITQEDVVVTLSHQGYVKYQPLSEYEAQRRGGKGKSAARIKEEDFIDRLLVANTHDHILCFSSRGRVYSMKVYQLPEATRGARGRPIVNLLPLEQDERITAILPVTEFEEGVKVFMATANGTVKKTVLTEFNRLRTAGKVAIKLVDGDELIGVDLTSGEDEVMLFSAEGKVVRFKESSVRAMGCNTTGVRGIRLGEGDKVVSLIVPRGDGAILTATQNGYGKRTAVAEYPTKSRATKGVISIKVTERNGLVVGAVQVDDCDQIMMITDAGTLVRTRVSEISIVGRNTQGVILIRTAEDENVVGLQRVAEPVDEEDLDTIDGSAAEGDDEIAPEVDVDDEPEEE
pIC50: −log10 of the molar value.
Classification by pIC50 | ranges: 0 (below 5), 1 (5 to below 6), 2 (6 or more)

Compound | Subject Of Test | Label Value
O=c1cc(NCCCN2CCN(c3nc(Cl)cc4ccccc34)CC2)c2ccccc2o1 | DNA gyrase subunit A (Escherichia coli K-12, UniProt P0AES4) | 1
O=c1cc(NCCCN2CCN(c3nccc4ccc(F)cc34)CC2)c2c(o1)CCOC2 | DNA gyrase subunit A (Escherichia coli K-12, UniProt P0AES4) | 1
O=c1cc(NC[C@H](O)CN2CCN(c3nccc4ccc(F)cc34)CC2)c2ccccc2o1 | DNA gyrase subunit A (Escherichia coli K-12, UniProt P0AES4) | 1
O=c1cc(CC(O)CCN2CCN(c3nccc4ccc(F)cc34)CC2)c2ccccc2o1 (racemic) | DNA gyrase subunit A (Escherichia coli K-12, UniProt P0AES4) | 1
COc1ccc2ccnc(N3CCN(CCCNc4cc(=O)oc5ccccc45)CC3)c2c1 | DNA gyrase subunit A (Escherichia coli K-12, UniProt P0AES4) | 1
O=c1nc(NCC(O)CN2CCN(c3nccc4ccc(F)cc34)CC2)c2cc(F)ccc2o1 (racemic) | DNA gyrase subunit A (Escherichia coli K-12, UniProt P0AES4) | 2
O=c1cc(NCCCN2CCN(c3nccc4ccc(F)cc34)CC2)c2c(o1)CCNC2 | DNA gyrase subunit A (Escherichia coli K-12, UniProt P0AES4) | 0
CN(C)c1ccc2ccnc(N3CCN(CCCNc4cc(=O)oc5ccccc45)CC3)c2c1 | DNA gyrase subunit A (Escherichia coli K-12, UniProt P0AES4) | 1
O=c1cc(OCCCN2CCN(c3nccc4ccccc34)CC2)c2ccccc2o1 | DNA gyrase subunit A (Escherichia coli K-12, UniProt P0AES4) | 1
O=c1cc(NCC(O)CN2CCN(c3nccc4ncccc34)CC2)c2cc(F)ccc2o1 (racemic) | DNA gyrase subunit A (Escherichia coli K-12, UniProt P0AES4) | 2
O=c1cc(NC2CCN(CCCc3ccccc3)CC2)c2cc(Cl)ccc2o1 | DNA gyrase subunit A (Escherichia coli K-12, UniProt P0AES4) | 0
O=c1nc(NCC(O)CN2CCN(c3nc(F)cc4ccc(F)cc34)CC2)c2cc(F)ccc2o1 (racemic) | DNA gyrase subunit A (Escherichia coli K-12, UniProt P0AES4) | 2
N#Cc1cc2ccccc2c(N2CCN(CCCNc3cc(=O)oc4ccccc34)CC2)n1 | DNA gyrase subunit A (Escherichia coli K-12, UniProt P0AES4) | 1
COc1ccc2cc(F)nc(N3CCN(CC(O)CNc4cc(=O)oc5ccc(F)cc45)CC3)c2c1 (racemic) | DNA gyrase subunit A (Escherichia coli K-12, UniProt P0AES4) | 2
O=c1cc(NCCCN2CCN(c3nccc4ccccc34)CC2)c2cc(Cl)ccc2o1 | DNA gyrase subunit A (Escherichia coli K-12, UniProt P0AES4) | 2
Cc1ccc2ccnc(N3CCN(CCCNc4cc(=O)oc5ccccc45)CC3)c2c1 | DNA gyrase subunit A (Escherichia coli K-12, UniProt P0AES4) | 1
O=c1cc(N[C@H]2C[C@H](N3CCN(c4nccc5ccccc45)CC3)C2)c2ccccc2o1 | DNA gyrase subunit A (Escherichia coli K-12, UniProt P0AES4) | 1
O=c1cc(NCCCN2CCN(c3nccc4ccc(F)cc34)CC2)c2c(o1)CCS(=O)(=O)C2 | DNA gyrase subunit A (Escherichia coli K-12, UniProt P0AES4) | 1
N#Cc1ccc2ccnc(N3CCN(CCCNc4cc(=O)oc5ccccc45)CC3)c2c1 | DNA gyrase subunit A (Escherichia coli K-12, UniProt P0AES4) | 1
Cc1cccc2oc(=O)cc(NCCCN3CCN(c4nccc5ccc(F)cc45)CC3)c12 | DNA gyrase subunit A (Escherichia coli K-12, UniProt P0AES4) | 1
O=c1cc(NCCCN2CCN(c3nccc4ccccc34)CC2)c2ccccc2o1 | DNA gyrase subunit A (Escherichia coli K-12, UniProt P0AES4) | 2
CN(CCCN1CCN(c2nccc3ccccc23)CC1)c1cc(=O)oc2ccccc12 | DNA gyrase subunit A (Escherichia coli K-12, UniProt P0AES4) | 0
O=C(NCCCN1CCN(c2nccc3ccccc23)CC1)c1ccccc1 | DNA gyrase subunit A (Escherichia coli K-12, UniProt P0AES4) | 0
COc1cc2ccccc2c(N2CCN(CCCNc3cc(=O)oc4ccccc34)CC2)n1 | DNA gyrase subunit A (Escherichia coli K-12, UniProt P0AES4) | 0
O=C1CN(c2nccc3ccccc23)CCN1CCCNc1cc(=O)oc2ccccc12 | DNA gyrase subunit A (Escherichia coli K-12, UniProt P0AES4) | 0
O=c1cc(NCCCN2CCN(c3nccc4ncccc34)CC2)c2ccccc2o1 | DNA gyrase subunit A (Escherichia coli K-12, UniProt P0AES4) | 0
Cc1cc2ccccc2c(N2CCN(CCCNc3cc(=O)oc4ccccc34)CC2)n1 | DNA gyrase subunit A (Escherichia coli K-12, UniProt P0AES4) | 1
